Item-by-item account of Dimer 50 kDa, %
# test_target: the molecule itself
# test_method_notes: cross-linking; Ca2+-loaded proteins: 0.02% glutaric aldehyde, 16 h, 20 °C, protein 1 mg/mL, 20 mM Tricine-KOH pH 7.4, 50 mM KCl, 1 mM DTT, 1 mM CaCl2; SDS-PAGE, Coomassie, densitometry; self-association
The figure you give is taken to be in %; do not add the unit.

Qu. What measured Dimer 50 kDa, % goes with human recoverin mutant Y86A (natural protein, UniProt P35243 1-200, looked up, myristoylated (fraction of non-myristoylated forms did not exceed 16%), recoverin, human, UniProt P35243, N-terminal 'black' cluster mutant; Parent construct as m1; source: E. coli, expressed and purified similarly to the rWT protein (phenyl-Sepharose, Toyopearl SuperQ-650M)) MGNSKSGALSKEILEELQLNTKFSEEELCSWYQSFLKDCPTGRITQQQFQSIYAKFFPDTDPKAYAQHVFRSFDSNLDGTLDFKEAVIALHMTTAGKTNQKLEWAFSLYDVDGNGTISKNEVLEIVMAIFKMITPEDVKLLPDDENTPEKRAEKIWKYFGKNDDDKLTEKEFIEGTLANKEILRLIQFEPQKVKEKMKNA ?
Ans. 28.5

Qu. Also human recoverin mutant E169A (natural protein, UniProt P35243 1-200, looked up, myristoylated (fraction of non-myristoylated forms did not exceed 16%), recoverin, human, UniProt P35243, C-terminal 'black' cluster mutant; Parent construct as m1; source: E. coli, expressed and purified similarly to the rWT protein (phenyl-Sepharose, Toyopearl SuperQ-650M)) MGNSKSGALSKEILEELQLNTKFSEEELCSWYQSFLKDCPTGRITQQQFQSIYAKFFPDTDPKAYAQHVFRSFDSNLDGTLDFKEYVIALHMTTAGKTNQKLEWAFSLYDVDGNGTISKNEVLEIVMAIFKMITPEDVKLLPDDENTPEKRAEKIWKYFGKNDDDKLTAKEFIEGTLANKEILRLIQFEPQKVKEKMKNA ?
Ans. 27

Qu. Can you handle human recoverin mutant F83A (natural protein, UniProt P35243 1-200, looked up, myristoylated (fraction of non-myristoylated forms did not exceed 16%), recoverin, human, UniProt P35243, N-terminal 'black' cluster mutant; Parent construct as m1; source: E. coli, expressed and purified similarly to the rWT protein (phenyl-Sepharose, Toyopearl SuperQ-650M)) MGNSKSGALSKEILEELQLNTKFSEEELCSWYQSFLKDCPTGRITQQQFQSIYAKFFPDTDPKAYAQHVFRSFDSNLDGTLDAKEYVIALHMTTAGKTNQKLEWAFSLYDVDGNGTISKNEVLEIVMAIFKMITPEDVKLLPDDENTPEKRAEKIWKYFGKNDDDKLTEKEFIEGTLANKEILRLIQFEPQKVKEKMKNA next?
Ans. 28.7
